Where do the numbers come from? From PubChem BioAssay AID1240.

I'd be grateful if you could share measured displacement for these entries.
# tgt: Bcl-2-like protein 10 (Homo sapiens) (UniProt Q9HD36)
# Sequence (Q9HD36 whole entry, looked up): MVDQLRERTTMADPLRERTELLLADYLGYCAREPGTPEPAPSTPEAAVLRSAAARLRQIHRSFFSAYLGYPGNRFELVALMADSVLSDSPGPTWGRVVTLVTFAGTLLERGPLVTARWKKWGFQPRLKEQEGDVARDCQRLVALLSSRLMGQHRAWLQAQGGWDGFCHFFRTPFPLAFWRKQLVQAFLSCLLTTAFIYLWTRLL
# protocol-description: TR3 peptide-Bcl-B binding displacers, biochemical primary FP assay, phenotype converters (AID 1240);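 further: 0% = Bcl-B with tracer peptide and DMSO and 100% = tracer peptide lacking Bcl-B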
# settings: GST-Bcl-B / FITC-TR3 peptide fluorescence polarization; stronger effect = higher value; compound at 3.75 mg/L
In all, about 50,000 compounds went through this assay and about 800 (1.6%) showed an effect of 50% or more. What follows is part of a selection rich in strong results, with near analogues and random picks from the rest.
The reply should contain only the number, in %.

Form entry - test system: Bcl-2-like protein 10 (Homo sapiens) (UniProt Q9HD36); read-out: displacement; molecule: `CCN1C(=O)/C(=C\c2ccc(O)c(OC)c2)SC1=S` -3.9

Form entry - test system: Bcl-2-like protein 10 (Homo sapiens) (UniProt Q9HD36); read-out: displacement; molecule: `N#C/C(=C/c1ccc(-c2ccc(S(N)(=O)=O)cc2)o1)C(=O)Nc1ccccc1` -0.4

Form entry - test system: Bcl-2-like protein 10 (Homo sapiens) (UniProt Q9HD36); read-out: displacement; molecule: `N#C/C(=C/c1ccc(Sc2ccccc2)o1)C(=O)Nc1ccccc1` -22.8

Form entry - test system: Bcl-2-like protein 10 (Homo sapiens) (UniProt Q9HD36); read-out: displacement; molecule: `CCOc1cc(/C=C2\SC(=S)N(CCOC)C2=O)ccc1O` 89.2

Form entry - test system: Bcl-2-like protein 10 (Homo sapiens) (UniProt Q9HD36); read-out: displacement; molecule: `COc1cc(/C=C2\SC(=S)N(CC(=O)O)C2=O)cc(OC)c1OC` -4

Form entry - test system: Bcl-2-like protein 10 (Homo sapiens) (UniProt Q9HD36); read-out: displacement; molecule: `Cc1c(Cl)cccc1-c1ccc(/C=N/N=C2\NC(=O)CS2)o1` 133

Form entry - test system: Bcl-2-like protein 10 (Homo sapiens) (UniProt Q9HD36); read-out: displacement; molecule: `COc1ccccc1NC(=O)c1c(NC(=O)Cc2ccccc2)sc2c1CCCCC2` 9.3

Form entry - test system: Bcl-2-like protein 10 (Homo sapiens) (UniProt Q9HD36); read-out: displacement; molecule: `CN(C)CCCNC(=O)c1ccc2sc3cc(=O)c(N)cc-3nc2c1` 44.6

Form entry - test system: Bcl-2-like protein 10 (Homo sapiens) (UniProt Q9HD36); read-out: displacement; molecule: `CCc1ccccc1NC(=O)/C(C#N)=C\c1ccc(Sc2ccccc2)o1` -12.2

Form entry - test system: Bcl-2-like protein 10 (Homo sapiens) (UniProt Q9HD36); read-out: displacement; molecule: `N#C/C(=C\c1ccc(-c2ccccc2)o1)C(=O)Nc1ccc(C#N)cc1` 168

Form entry - test system: Bcl-2-like protein 10 (Homo sapiens) (UniProt Q9HD36); read-out: displacement; molecule: `COc1cc(/C=C2\SC(=S)N(CC(C)C)C2=O)ccc1O` 91.5
